- PROCEDURE_DETAILS: Inhibition of beta-hexosaminidase in human PBMC using 4-nitrophenyl 2-acetamido-2-deoxy-beta-D-glucopyranoside as substrate at pH 4.3 after 2 hrs by fluorescence assay
- ASSAY_CONDITIONS: in the assay text read “colorimetric assay” for “fluorescence assay”
VALUE_KIND: IC50

entry_smiles=CCCCC[C@H]1NC[C@@H](O)[C@@H](O)[C@H]1CO value_kind=IC50 result="> 160 µM"

----------
- PROCEDURE_DETAILS: Inhibition of beta-glucosidase in human PBMC using 4-methylumbelliferyl beta-D-glucopyranoside as substrate at pH 6 after 2 hrs by fluorescence assay
pIC50: −log10 of the molar value.
VALUE_KIND: pIC50

molecule=CCCCC[C@H]1NC[C@@H](O)[C@@H](O)[C@H]1CO value_kind=pIC50 numeric_readout=4.00
molecule="O[C@H]1[C@H](O)[C@@H](O)[C@@H]2O[C@@H]2[C@@H]1O [CONDURITOL B EPOXIDE]" value_kind=pIC50 numeric_readout=4.52

----------
- TARGET_UNDER_TEST: Beta-galactosidase (Homo sapiens)
- Sequence (P16278 whole entry): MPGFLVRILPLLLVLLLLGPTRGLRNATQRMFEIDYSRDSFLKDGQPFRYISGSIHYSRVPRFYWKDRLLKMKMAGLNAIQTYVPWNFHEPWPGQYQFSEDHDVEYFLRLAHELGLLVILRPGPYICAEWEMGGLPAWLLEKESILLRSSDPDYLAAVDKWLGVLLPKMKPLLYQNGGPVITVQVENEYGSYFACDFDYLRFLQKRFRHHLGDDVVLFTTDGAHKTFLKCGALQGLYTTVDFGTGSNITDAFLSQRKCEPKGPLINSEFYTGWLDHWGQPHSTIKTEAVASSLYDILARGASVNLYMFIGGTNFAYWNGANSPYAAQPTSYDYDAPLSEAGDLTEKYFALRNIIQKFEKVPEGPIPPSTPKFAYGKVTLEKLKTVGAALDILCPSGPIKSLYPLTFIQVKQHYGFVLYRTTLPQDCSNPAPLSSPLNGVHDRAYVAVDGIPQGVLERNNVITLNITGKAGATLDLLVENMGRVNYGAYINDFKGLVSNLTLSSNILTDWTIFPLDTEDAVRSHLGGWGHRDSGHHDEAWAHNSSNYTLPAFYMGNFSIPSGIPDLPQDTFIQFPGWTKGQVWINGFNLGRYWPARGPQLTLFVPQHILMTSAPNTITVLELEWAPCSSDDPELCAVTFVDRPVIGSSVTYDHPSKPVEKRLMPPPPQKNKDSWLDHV
- PROCEDURE_DETAILS: Inhibition of beta-galactosidase in human PBMC using 4-methylumbelliferyl beta-D-galactopyranoside as substrate at pH 4.3 after 2 hrs by fluorescence assay
VALUE_KIND: IC50 (µM)

entry_smiles=OC[C@H]1CNC[C@@H](O)[C@H]1O value_kind=IC50 unit_text=µM numeric_readout=12
entry_smiles=CCCCC[C@H]1NC[C@@H](O)[C@@H](O)[C@H]1CO value_kind=IC50 unit_text=µM numeric_readout=0.18

----------
- TARGET_UNDER_TEST: Beta-galactosidase (Homo sapiens)
- PROCEDURE_DETAILS: Inhibition of beta-galactosidase in human PBMC using 4-methylumbelliferyl beta-D-galactopyranoside as substrate at pH 7.3 after 2 hrs by fluorescence assay
pIC50: −log10 of the molar value.
Examples of molecules with documented pIC50 follow.
VALUE_KIND: pIC50

entry_smiles=CCCCC[C@@H]1NC[C@@H](O)[C@@H](O)[C@@H]1CO value_kind=pIC50 cmp=< numeric_readout=3.82
entry_smiles=CCCCC[C@@H]1NC[C@@H](O)[C@@H](O)[C@H]1CO value_kind=pIC50 cmp== numeric_readout=4.89
entry_smiles=OC[C@H]1CNC[C@@H](O)[C@H]1O value_kind=pIC50 cmp== numeric_readout=6.62

----------
- PROCEDURE_DETAILS: Inhibition of beta-hexosaminidase (unknown origin)
- Parameters: species or system Homo sapiens
VALUE_KIND: IC50 (µM)

entry_smiles=CC(=O)N[C@H]1CNC[C@H](O)[C@@H](O)[C@@H]1O unit_text=µM numeric_readout=15
